Cited source for all entries: patent US12384801B2

# targetDesc: human HAQ isoform of STING (Homo sapiens (Human), UniProt Q86WV6, G230A/H232R/R293Q/R71H)
# Sequence (Q86WV6 whole entry R71H/G230A/H232R/R293Q, canonical isoform): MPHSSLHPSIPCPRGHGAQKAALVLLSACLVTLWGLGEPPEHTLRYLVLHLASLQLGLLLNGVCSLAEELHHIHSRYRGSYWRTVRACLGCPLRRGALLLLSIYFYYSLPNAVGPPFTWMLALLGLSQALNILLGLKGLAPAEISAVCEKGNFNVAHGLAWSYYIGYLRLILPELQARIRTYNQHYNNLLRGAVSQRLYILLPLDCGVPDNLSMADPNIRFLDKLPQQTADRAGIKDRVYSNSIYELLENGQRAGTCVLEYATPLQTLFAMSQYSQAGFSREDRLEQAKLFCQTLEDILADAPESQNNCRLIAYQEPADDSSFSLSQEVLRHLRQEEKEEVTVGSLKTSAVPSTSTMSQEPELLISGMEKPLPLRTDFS
# testDescription: THP-1 STING Lucia ISG reporter cell line assay
# details: 24 h incubation, luminescence, normalized to ML RR-S2 CDA 40 μM; read-out: EC50 THP-I STING Lucia ISG cells
readoutKind: EC50

Challenge: Record request: EC50 value, item "CCOC(=O)c1sc2cccc(C(F)(F)F)c2c1-c1nc2cc(C(N)=O)ccc2n1CCn1c(-c2c(C(=O)OCC)sc3cccc(C(F)(F)F)c23)nc2cc(C(N)=O)ccc21"
Response given: 3.74 µM

Challenge: // query EC50 value for entry "N#Cc1cccc2sc(C(=O)O)c(-c3nc4cc(C(N)=O)ccc4n3CCn3c(-c4c(C(=O)O)sc5cccc(C#N)c45)nc4cc(C(N)=O)ccc43)c12"
Response given: 14.9 µM

Challenge: # EC50 lookup, item "CCOC(=O)c1sc2ccccc2c1-c1nc2cc(C(N)=O)ccc2n1CCn1c(-c2c(C(=O)OCC)sc3ccccc23)nc2cc(C(N)=O)ccc21"
Response given: > 40 µM

Challenge: Need EC50 of COc1ccc(F)c2sc(C(=O)O)c(-c3nc4cc(C(N)=O)ccc4n3CCn3c(-c4c(C(=O)O)sc5c(F)ccc(OC)c45)nc4cc(C(N)=O)ccc43)c12 (single isomer, unassigned) [Example 13.1] , thanks.
Response given: 8.31 µM

Challenge: Given the entry "CCOC(=O)c1sc2cccc(OCC)c2c1-c1nc2cc(C(N)=O)ccc2n1CCn1c(-c2c(C(=O)OCC)sc3cccc(OCC)c23)nc2cc(C(N)=O)ccc21" , report its measured EC50.
Response given: > 40 µM
